Target: Genome polyprotein (Poliovirus type 1 (strain Mahoney)) (UniProt P03300)
Sequence (P03300 1749-2209 limits assumed): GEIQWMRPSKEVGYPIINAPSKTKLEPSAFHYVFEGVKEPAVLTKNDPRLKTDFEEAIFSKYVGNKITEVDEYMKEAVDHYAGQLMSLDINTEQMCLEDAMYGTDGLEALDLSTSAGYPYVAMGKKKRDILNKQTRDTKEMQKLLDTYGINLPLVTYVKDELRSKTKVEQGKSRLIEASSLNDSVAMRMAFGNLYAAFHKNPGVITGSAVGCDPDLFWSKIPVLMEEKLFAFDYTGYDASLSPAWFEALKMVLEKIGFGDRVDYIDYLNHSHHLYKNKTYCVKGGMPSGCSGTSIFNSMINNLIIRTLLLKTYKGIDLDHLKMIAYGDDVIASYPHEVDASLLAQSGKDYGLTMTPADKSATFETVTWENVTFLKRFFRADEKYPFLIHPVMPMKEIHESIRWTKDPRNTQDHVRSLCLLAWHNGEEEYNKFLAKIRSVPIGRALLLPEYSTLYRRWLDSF
Assay: poliovirus RdRp elongation inhibitors, primary screen, biochemical, fluorescence polarization, total intensity (AID 588519)
Details: poliovirus polymerase elongation, measured here: total intensity read-out, stronger effect = lower value, compound at 16.7 µg/mL
Out of some 150,000 compounds screened, about 1,000 (0.67%) were called active. Many of the other results were omitted from the sample, so actives are more common in it than they were.
PARAMETER_MEASURED: % elongation (%)
Respond numerically; units are % and should not be typed.

Here is how some molecules turned out for % elongation.
[[record]]
molecule = "CC(C)n1c(-c2ccncc2)n[nH]c1=S"
meas_value = 103

[[record]]
molecule = "CCOc1ccc2nc(NC(=O)c3ccccc3OC)sc2c1"
meas_value = 92

[[record]]
molecule = "CN(Cc1ccccc1)C(=O)Cn1cnc(S(=O)(=O)N2CCCC2)c1"
meas_value = 101

[[record]]
molecule = "CCOc1ccccc1CNC(=O)Nc1cn(CC(C)C)c(=O)c2ccccc12"
meas_value = 48

[[record]]
molecule = "CCOC(=O)c1c(NC(=O)c2cc(-c3ccc(Cl)cc3)on2)sc2c1CCCC2"
meas_value = 85


For record CC(C)NC(=O)CCc1c[nH]c2ccccc12 the listed % elongation is 68

For record CCN(C(=O)c1sc2nc3n(c(=O)c2c1C)CCCC3)c1ccccc1 the listed % elongation is 100

For record C=C(C)CNC(=S)NN the listed % elongation is 86

For record Cc1ccc(OCCn2cc(C(=O)c3ccccc3)c3ccccc32)cc1 the listed % elongation is 96
